- System: 227483-062-R1-J1-PDC complex spheroids with HUVEC/MSC, viability;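 also: spheroids exposed to compounds for seven days before readout; percent of DMSO vehicle control luminescence as 100% viability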
- EXPERIMENT: Anticancer human tumor 227483-062-R1-J1-PDC patient-derived pancreatic carcinoma cell line growth inhibition [CLK]
- CONDITION_LABEL: second compound 3.16 µM; first compound 1 µM; active compounds read low
Examples of compounds with documented viability, T/C follow.

- COMPOUND: "C=C(F)C(=O)N1CCN(c2nc(OCC3CCCN3C)nc3c2CCN(c2cccc4cccc(Cl)c24)C3)CC1CC#N (stereo not drawn) + CN1CCN(c2cc(C(=O)Nc3cc4cc(-c5cnn(C)c5)ccc4cn3)ccn2)CC1"
  viability, T/C: "4.77%"
- COMPOUND: "CCN1CCN(Cc2ccc(Nc3ncc(F)c(-c4cc(F)c5nc(C)n(C(C)C)c5c4)n3)nc2)CC1 + CN1CCN(c2cc(C(=O)Nc3cc4cc(-c5cnn(C)c5)ccc4cn3)ccn2)CC1"
  viability, T/C: "8.09%"
- COMPOUND: "COc1ccc([C@@H](O)c2cc(-c3ncnc4cc(N5CCOCC5)ccc34)c(F)cc2Cl)nn1 + CNC(=O)c1ccc(Nc2nc(OC3CCCC3)c3c(-c4ccc5nc(C)oc5c4)c[nH]c3n2)c(OC)c1"
  viability, T/C: "45.7%"
